Header: pKi / the protein given by its sequence / multiple publications
Protein target, amino acids: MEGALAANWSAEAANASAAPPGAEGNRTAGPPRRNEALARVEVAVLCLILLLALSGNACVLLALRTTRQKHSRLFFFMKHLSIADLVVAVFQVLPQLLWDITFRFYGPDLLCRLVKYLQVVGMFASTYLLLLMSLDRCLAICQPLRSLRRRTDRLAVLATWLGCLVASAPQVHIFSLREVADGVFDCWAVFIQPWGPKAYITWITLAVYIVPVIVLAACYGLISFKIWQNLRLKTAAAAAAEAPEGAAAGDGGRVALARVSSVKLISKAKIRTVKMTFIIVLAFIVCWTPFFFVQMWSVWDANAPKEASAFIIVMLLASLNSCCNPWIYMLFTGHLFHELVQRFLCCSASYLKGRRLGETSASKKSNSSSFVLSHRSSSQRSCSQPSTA
Hey, just a heads up that pKi is the negative log base 10 of the concentration in molar.

IN: Need pKi, item "CN(C)CCCOc1ccc(S(=O)(=O)N(CC(=O)N/N=C2\C(=O)Nc3ccccc32)c2ccc(Cl)cc2)cc1"
OUT: 8.96

IN: Need pKi, item "CC(C)C[C@@H]1C(=O)N[C@H](C2Cc3ccccc3C2)C(=O)N1[C@H](C(=O)NC(C)(C)C)c1ccccc1"
OUT: 7.10

IN: Need pKi, item "COc1ccc(S(=O)(=O)N2C(=O)[C@@](c3cc(CN4CCN(C)CC4)ccc3OC)(N3CCC[C@H]3C(=O)N(C)C)c3cc(Cl)ccc32)cc1"
OUT: 7.70

IN: Need pKi, item "CC(C)C[C@@H]1C(=O)N[C@H](C2Cc3ccccc3C2)C(=O)N1[C@H](C(=O)NC(C)(C)C)c1ccc(OC(F)(F)F)cc1"
OUT: 6.80
